pIC50 listing for selected molecules.
tested on: Human breast cancer cell line [MDA-MB-231]; experiment: Anti-proliferative activity (WST-8) of BRD4 targeted PROTAC in MDA-MB-231; format: cell-based; details: Homo sapiens; MDA-MB-231, 72 hours, WST-8; read-out: IC50 of BRD4-targeted PROTAC (cell proliferation)
// field semantics: pIC50 = negative decimal log of concentration (mol/L)

Which measured pIC50 value corresponds to Cc1sc2c(c1C)C(c1ccc(Cl)cc1)=N[C@@H](CC(=O)Nc1ccc(OCCOCCOCCOCCNc3ccc4cnn(C5CCC(=O)NC5=O)c(=O)c4c3)cc1)c1nnc(C)n1-2 (stereo partly drawn) [Ex. 29] ?
7.01

Next molecule, please.
Which measured pIC50 value corresponds to Cc1sc2c(c1C)C(c1ccc(Cl)cc1)=N[C@@H](CC(=O)NCCCCCNc1cccc3c(=O)n(C4CCC(=O)NC4=O)ncc13)c1nnc(C)n1-2 (stereo partly drawn) [Example 51] ?
7.00

----------
tested on: Human breast cancer cell line [MDA-MB-231]; test: Anti-proliferative activity (WST-8) of BRD4 targeted PROTAC in MDA-MB-231; type: cell-based; conditions: Homo sapiens; MDA-MB-231, 72 hours, WST-8; read-out: IC50 of BRD4-targeted PROTAC (cell proliferation)
quantity_name: IC50

Field: example entries. Status: answers known.
Which measured IC50 value corresponds to Cc1sc2c(c1C)C(c1ccc(Cl)cc1)=N[C@@H](CC(=O)Nc1cccc(OCCOCCOCCNc3ccc4c(=O)n(C5CCC(=O)NC5=O)ncc4c3)c1)c1nnc(C)n1-2 (some centres unmarked) [Example 41] ?
137 nM

Which measured IC50 value corresponds to Cc1sc2c(c1C)C(c1ccc(Cl)cc1)=N[C@@H](CC(=O)Nc1ccc(OCCOCCOCCOCCNc3cccc4cnn(C5CCC(=O)NC5=O)c(=O)c34)cc1)c1nnc(C)n1-2 (some centres unmarked) [Ex. 27] ?
640 nM

Next:
Which measured IC50 value corresponds to Cc1sc2c(c1C)C(c1ccc(Cl)cc1)=N[C@@H](CC(=O)Nc1cccc(OCCOCCOCCNc3cccc4c(C)nn(C5CCC(=O)NC5=O)c(=O)c34)c1)c1nnc(C)n1-2 (some centres unmarked) [Example 39] ?
< 1 nM

Which measured IC50 value corresponds to Cc1sc2c(c1C)C(c1ccc(Cl)cc1)=N[C@@H](CC(=O)Nc1ccc(OCCOCCOCCOCCNc3ccc4c(=O)n(C5CCC(=O)NC5=O)ncc4c3)cc1)c1nnc(C)n1-2 (some centres unmarked) [Ex. 28] ?
33.1 nM

----------
tested on: Human breast cancer cell line [MDA-MB-231]; experiment: Anti-proliferative activity (WST-8) of BRD4 targeted PROTAC in MDA-MB-231; assay type: cell-based; conditions: Homo sapiens; MDA-MB-231, 72 hours, WST-8; read-out: IC50 of BRD4-targeted PROTAC (cell proliferation)
pIC50: −log10 of the molar value.
# if value of pIC50 reaches 7, tag rule met; if it stays below, tag rule not met

Decide: pIC50 of Cc1sc2c(c1C)C(c1ccc(Cl)cc1)=N[C@@H](CC(=O)Nc1cccc(OCCOCCOCCNc3cccc4c(=O)n(C5CCC(=O)NC5=O)ncc34)c1)c1nnc(C)n1-2 (some centres unmarked) >= 7?
rule not met

Decide: pIC50 of Cc1sc2c(c1C)C(c1ccc(Cl)cc1)=N[C@@H](CC(=O)NCC#Cc1ccc3c(=O)n(C4CCC(=O)NC4=O)ncc3c1)c1nnc(C)n1-2 (some centres unmarked) >= 7?
rule not met

Decide: pIC50 of Cc1sc2c(c1C)C(c1ccc(Cl)cc1)=N[C@@H](CC(=O)Nc1cccc(OCCOCCOCCNc3cccc4cnn(C5CCC(=O)NC5=O)c(=O)c34)c1)c1nnc(C)n1-2 (some centres unmarked) >= 7?
rule met

Next:
Decide: pIC50 of Cc1sc2c(c1C)C(c1ccc(Cl)cc1)=N[C@@H](CC(=O)NCC1CCN(c3cccc4cnn(C5CCC(=O)NC5=O)c(=O)c34)C1)c1nnc(C)n1-2 (some centres unmarked) >= 7?
rule not met

Decide: pIC50 of Cc1sc2c(c1C)C(c1ccc(Cl)cc1)=N[C@@H](CC(=O)NCCNc1cccc3cnn(C4CCC(=O)NC4=O)c(=O)c13)c1nnc(C)n1-2 (some centres unmarked) >= 7?
rule not met

Decide: pIC50 of Cc1sc2c(c1C)C(c1ccc(Cl)cc1)=N[C@@H](CC(=O)Nc1cccc(OCCOCCOCCNc3ccc4cnn(C5CCC(=O)NC5=O)c(=O)c4c3)c1)c1nnc(C)n1-2 (some centres unmarked) >= 7?
rule met

Decide: pIC50 of Cc1sc2c(c1C)C(c1ccc(Cl)cc1)=N[C@@H](CC(=O)NCCOCCOCCOCCn1cc(CNc3cccc4cnn(C5CCC(=O)NC5=O)c(=O)c34)nn1)c1nnc(C)n1-2 (some centres unmarked) >= 7?
rule not met

Decide: pIC50 of Cc1sc2c(c1C)C(c1ccc(Cl)cc1)=N[C@@H](CC(=O)NCc1cn(CCOCCOCCOCCNc3cccc4c(=O)n(C5CCC(=O)NC5=O)ncc34)nn1)c1nnc(C)n1-2 (some centres unmarked) >= 7?
rule not met

Decide: pIC50 of Cc1sc2c(c1C)C(c1ccc(Cl)cc1)=N[C@@H](CC(=O)Nc1ccc(OCCOCCOCCNc3ccc4c(=O)n(C5CCC(=O)NC5=O)ncc4c3)cc1)c1nnc(C)n1-2 (some centres unmarked) >= 7?
rule not met

Decide: pIC50 of Cc1sc2c(c1C)C(c1ccc(Cl)cc1)=N[C@@H](CC(=O)NCCN1CCN(c3ccc4cnn(C5CCC(=O)NC5=O)c(=O)c4c3)CC1)c1nnc(C)n1-2 (some centres unmarked) >= 7?
rule met
